Reference source for all entries: patent US20260315446A1

- Assay Method Text: Pharmacokinetics in whole blood
- Assay type: in vivo, mouse (CD-1)
- Assay Setup: mouse, in vivo, ip, 40 mg/kg, males; 40 mg/kg i.p. single dose, whole blood; read-out: t1/2 (12-24 h) (half-life) (converted)
# Lookup of reported half-life keyed by entry
Answer with a number only, understood to be in h.

{"Molecule": "CC[C@@H]1/C=C(\\C)C[C@H](C)C[C@H](OC)[C@H]2O[C@@](O)(C(=O)C(=O)N3CCCC[C@H]3C(=O)O[C@H](/C(C)=C/C3CC[C@@H](O)[C@H](OC)C3)[C@H](C)[C@@H](O)C/C1=N/NC(=O)OC)[C@H](C)C[C@@H]2OC (some centres unmarked)", "half-life, h": 2.26}

Kindly consider the entry below.
Determine from records and report half-life for C=CCC1C=C(C)CC(C)CC(OC)C2OC(O)(C(=O)C(=O)N3CCCCC3C(=O)OC(C(C)=CC3CCC(O)C(OC)C3)C(C)C(O)CC1=O)C(C)CC2OC (centres unmarked) [FK506, reference compound] 2.46

----------
Here the recorded minimal effective concentration is given for each entry.
- Tested on: Aspergillus fumigatus
- Assay Method Text: Broth microdilution MIC/MEC (Example 1)
- Type: cell-based
- Assay Setup: Aspergillus fumigatus; strain Af293; read-out: MEC against Aspergillus fumigatus (Af293)
Return type: number; implicit unit µg/mL.

Below are worked cases with known answers.
{"Molecule": "C=CCC1C=C(C)CC(C)CC(OC)C2OC(O)(C(=O)C(=O)N3CCCCC3C(=O)OC(C(C)=CC3CCC(O)C(OC)C3)C(C)C(O)CC1=O)C(C)CC2OC (stereo not shown) [FK506, reference compound]", "Value Measured": 0.016}
{"Molecule": "C=CC[C@@H]1/C=C(\\C)C[C@H](C)C[C@H](OC)[C@H]2O[C@@](O)(C(=O)C(=O)N3CCCC[C@H]3C(=O)O[C@H](/C(C)=C/[C@@H]3CC[C@@H](O)[C@H](OC)C3)[C@H](C)[C@@H](O)C/C1=N/NC(=O)c1ccccc1)[C@H](C)C[C@@H]2OC", "Value Measured": 1}
{"Molecule": "CC[C@@H]1/C=C(\\C)C[C@H](C)C[C@H](OC)[C@H]2O[C@@](O)(C(=O)C(=O)N3CCCC[C@H]3C(=O)O[C@H](/C(C)=C/[C@@H]3CC[C@@H](O)[C@H](OC)C3)[C@H](C)[C@@H](O)C/C1=N/NC(C)=O)[C@H](C)C[C@@H]2OC", "Value Measured": 2}

Consider the additional molecule presented here.
Give recorded minimal effective concentration. C=CC[C@@H]1/C=C(\C)C[C@H](C)C[C@H](OC)[C@H]2O[C@@](O)(C(=O)C(=O)N3CCCC[C@H]3C(=O)O[C@H](/C(C)=C/[C@@H]3CC[C@@H](O)[C@H](OC)C3)[C@H](C)[C@@H](O)C/C1=N/NC(C)=O)[C@H](C)C[C@@H]2OC 1

----------
- Assay Method Text: Pharmacokinetics in whole blood
- Format: in vivo, mouse (CD-1)
- Assay Setup: mouse, in vivo, ip, 40 mg/kg, females; 40 mg/kg i.p. single dose, whole blood; read-out: CI/F (clearance as Dose/AUCINF) (converted)
- Procedure: For the lead compound JH-FK-08, the mechanism of action resulting in antifungal activity was tested for conservation of calcineurin inhibition. To probe the JH-FK-08 mechanism of action, MICs of JH-FK-08 were determined with fungal mutants that lack the drug-binding protein FKBP12 or have mutations in the binding site on calcineurin that prevent FKBP12-FK506 binding and inhibition. […]
Measurement Name: CL/F (mL/min/kg)
Field: numeric (mL/min/kg). Do not append units.

Using known records, supply CL/F for C=CCC1C=C(C)CC(C)CC(OC)C2OC(O)(C(=O)C(=O)N3CCCCC3C(=O)OC(C(C)=CC3CCC(O)C(OC)C3)C(C)C(O)CC1=O)C(C)CC2OC (centres unmarked) [FK506, reference compound] 25.9

In one line, give reported CL/F of the entry CC[C@@H]1/C=C(\C)C[C@H](C)C[C@H](OC)[C@H]2O[C@@](O)(C(=O)C(=O)N3CCCC[C@H]3C(=O)O[C@H](/C(C)=C/C3CC[C@@H](O)[C@H](OC)C3)[C@H](C)[C@@H](O)C/C1=N/NC(=O)OC)[C@H](C)C[C@@H]2OC (some centres unmarked) . 21.5

----------
- Tested on: IL-2 expression in primary mouse CD4+ T cells (mammalian calcineurin)
- Assay Method Text: In vitro immunosuppressive activity, IL-2 expression (Example 3)
- Type: cell-based
- Assay Setup: 72 h
For each record, check the reported IC50: if it is below 6 nM write Satisfied, else write Not satisfied.

A selection of reference data follows.
{"Compound": "CC[C@@H]1/C=C(\\C)C[C@H](C)C[C@H](OC)[C@H]2O[C@@](O)(C(=O)C(=O)N3CCCC[C@H]3C(=O)O[C@H](/C(C)=C/C3CC[C@@H](O)[C@H](OC)C3)[C@H](C)[C@@H](O)C/C1=N/NC(=O)c1ccc3ccccc3c1)[C@H](C)C[C@@H]2OC (stereo partly drawn)", "Classification": "Not satisfied"}
{"Compound": "C=CCC1C=C(C)CC(C)CC(OC)C2OC(O)(C(=O)C(=O)N3CCCCC3C(=O)OC(C(C)=CC3CCC(O)C(OC)C3)C(C)C(O)CC1=O)C(C)CC2OC (stereo not drawn) [FK506, reference compound]", "Classification": "Satisfied"}
{"Compound": "CC[C@@H]1/C=C(\\C)C[C@H](C)C[C@H](OC)[C@H]2O[C@@](O)(C(=O)C(=O)N3CCCC[C@H]3C(=O)O[C@H](/C(C)=C/[C@@H]3CC[C@@H](O)[C@H](OC)C3)[C@H](C)[C@@H](O)CC1=O)[C@H](C)C[C@@H]2OC [FK520, reference compound]", "Classification": "Satisfied"}
{"Compound": "CC[C@@H]1/C=C(\\C)C[C@H](C)C[C@H](OC)[C@H]2O[C@@](O)(C(=O)C(=O)N3CCCC[C@H]3C(=O)O[C@H](/C(C)=C/C3CC[C@@H](O)[C@H](OC)C3)[C@H](C)[C@@H](O)C/C1=N/NC(=O)CO)[C@H](C)C[C@@H]2OC (stereo partly drawn)", "Classification": "Not satisfied"}

Kindly review the next compound as well.
Say whether its IC50 is strictly beneath 6 nM. Entry: CC[C@@H]1/C=C(\C)C[C@H](C)C[C@H](OC)[C@H]2O[C@@](O)(C(=O)C(=O)N3CCCC[C@H]3C(=O)O[C@H](/C(C)=C/C3CC[C@@H](O)[C@H](OC)C3)[C@H](C)[C@@H](O)C/C1=N/NC(=O)c1cccc(C(=O)NN)c1)[C@H](C)C[C@@H]2OC (stereo partly drawn) Not satisfied

----------
- Tested on: IL-2 expression in primary mouse CD4+ T cells (mammalian calcineurin)
- Assay Method Text: In vitro immunosuppressive activity, IL-2 expression (Example 3)
- Assay type: cell-based
- Assay Setup: 72 h
Measurement Name: pIC50
pIC50 is defined as minus the log10 of a concentration measured in mol/L.

{"Compound": "CC[C@@H]1/C=C(\\C)C[C@H](C)C[C@H](OC)[C@H]2O[C@@](O)(C(=O)C(=O)N3CCCC[C@H]3C(=O)O[C@H](/C(C)=C/C3CC[C@@H](O)[C@H](OC)C3)[C@H](C)[C@@H](O)C/C1=N/NC(=O)c1ccc(F)cc1)[C@H](C)C[C@@H]2OC (some centres unmarked)", "pIC50": 8.03}

Give pIC50 for the following compound: CC[C@@H]1/C=C(\C)C[C@H](C)C[C@H](OC)[C@H]2O[C@@](O)(C(=O)C(=O)N3CCCC[C@H]3C(=O)O[C@H](/C(C)=C/C3CC[C@@H](O)[C@H](OC)C3)[C@H](C)[C@@H](O)C/C1=N/NC(N)=O)[C@H](C)C[C@@H]2OC (some centres unmarked) 7.45

----------
- Assay Method Text: Pharmacokinetics in whole blood
- Assay type: in vivo, mouse (CD-1)
- Assay Setup: mouse, in vivo, ip, 40 mg/kg, males; 40 mg/kg i.p. single dose, whole blood
This listing pairs molecules with measured Cmax.

{"Molecule": "CC[C@@H]1/C=C(\\C)C[C@H](C)C[C@H](OC)[C@H]2O[C@@](O)(C(=O)C(=O)N3CCCC[C@H]3C(=O)O[C@H](/C(C)=C/C3CC[C@@H](O)[C@H](OC)C3)[C@H](C)[C@@H](O)C/C1=N/NC(=O)OC)[C@H](C)C[C@@H]2OC (some centres unmarked) [JH-FK-08]", "Cmax": "4070 ng/mL"}

Alright, here's another molecule for you.
Given C=CCC1C=C(C)CC(C)CC(OC)C2OC(O)(C(=O)C(=O)N3CCCCC3C(=O)OC(C(C)=CC3CCC(O)C(OC)C3)C(C)C(O)CC1=O)C(C)CC2OC (centres unmarked) [FK506, reference compound] , respond with its Cmax. 4510 ng/mL
